Target Or System: Cdk2(S181C) (C177A) (Homo sapiens, UniProt P24941, C177A/S181C)
Construct: poly-histidine; made in house; host or cells: E. coli
Measurement Protocol: Kinetic thiol consumption assay with Cdk2 mutant S181C
Format: binding
Design: key: rate constant with Cdk2 ÷ rate constant with model thiol (fold)
Details: Cdk2 S181C, additional mutation C177A
Known Rate enhancement, Cdk2 S181C of a selection of molecules
Provide a numeric answer; units are not to be included.

Recorded Rate enhancement, Cdk2 S181C for C=CC(=O)N1CCC2CCC(C1)N2C (stereo not drawn) , please?
0.9178

Do the same for C=CC(=O)Nc1cccc(C(F)(F)F)c1 [BN-80] please
0.4626

Moving on to the next molecule: C=CC(=O)N1C(C(=O)c2ccccc2)C1c1ccccc1 (stereo not drawn)
14.88

Same for C=CC(=O)NC1CC(NC(=O)C2CCC2)C1 (stereo not drawn)
1.095

Note, next up: C=CC(=O)N1CCCN(Cc2noc(C3CC3)n2)CC1
4.96

Now try C=CC(=O)N(C1CC1)C1CCCCC1C1CCCCC1 (stereo not drawn) .
9.936
